B1: CPEB3 Ribozyme (parent)
chain: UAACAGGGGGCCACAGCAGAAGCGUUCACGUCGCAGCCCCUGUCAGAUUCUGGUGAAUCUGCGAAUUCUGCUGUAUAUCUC

Variants of: B1
Experiment: self-cleavage, relative activity (ratio to wild type); higher = more cleavage; in vitro, sequencing

[
  {
    "Variant Identifier": "G10A C17U",
    "self-cleavage": 0.06
  },
  {
    "Variant Identifier": "G7A A75G",
    "self-cleavage": 0.3
  },
  {
    "Variant Identifier": "C32G C37U",
    "self-cleavage": 0.31
  },
  {
    "Variant Identifier": "A45G U51A",
    "self-cleavage": 0.74
  },
  {
    "Variant Identifier": "U58A U76A",
    "self-cleavage": 0.49
  },
  {
    "Variant Identifier": "A65U U69A",
    "self-cleavage": 0.3
  },
  {
    "Variant Identifier": "G24A G36U",
    "self-cleavage": 0.1
  },
  {
    "Variant Identifier": "G73A U78C",
    "self-cleavage": 1.32
  },
  {
    "Variant Identifier": "A28C A65U",
    "self-cleavage": 0.3
  },
  {
    "Variant Identifier": "G24C A77U",
    "self-cleavage": 0.09
  },
  {
    "Variant Identifier": "C29G C34U",
    "self-cleavage": 0.08
  },
  {
    "Variant Identifier": "U43G A75U",
    "self-cleavage": 0.35
  },
  {
    "Variant Identifier": "A2G U49C",
    "self-cleavage": 0.32
  },
  {
    "Variant Identifier": "A35G U76G",
    "self-cleavage": 1.49
  },
  {
    "Variant Identifier": "G61C U66A",
    "self-cleavage": 0.23
  },
  {
    "Variant Identifier": "C50U U66A",
    "self-cleavage": 0.22
  },
  {
    "Variant Identifier": "A15U U58C",
    "self-cleavage": 0.26
  },
  {
    "Variant Identifier": "U69A U76G",
    "self-cleavage": 0.7
  },
  {
    "Variant Identifier": "A45U U80C",
    "self-cleavage": 0.62
  },
  {
    "Variant Identifier": "A13C U41C",
    "self-cleavage": 1.08
  },
  {
    "Variant Identifier": "U43G A77G",
    "self-cleavage": 0.22
  },
  {
    "Variant Identifier": "C62G A64C",
    "self-cleavage": 0.19
  },
  {
    "Variant Identifier": "C40U U67C",
    "self-cleavage": 0.23
  },
  {
    "Variant Identifier": "U43G G53A",
    "self-cleavage": 0.3
  },
  {
    "Variant Identifier": "C32U A56U",
    "self-cleavage": 0.19
  },
  {
    "Variant Identifier": "U31C U51C",
    "self-cleavage": 0.78
  },
  {
    "Variant Identifier": "A15U U25A",
    "self-cleavage": 0.2
  },
  {
    "Variant Identifier": "G10C A64U",
    "self-cleavage": 0.15
  },
  {
    "Variant Identifier": "C27G U69C",
    "self-cleavage": 0.24
  },
  {
    "Variant Identifier": "U26A C38U",
    "self-cleavage": 0.51
  },
  {
    "Variant Identifier": "A28C U41A",
    "self-cleavage": 0.2
  },
  {
    "Variant Identifier": "A45G A64U",
    "self-cleavage": 0.3
  },
  {
    "Variant Identifier": "A35G G46A",
    "self-cleavage": 0.96
  },
  {
    "Variant Identifier": "U66G U72A",
    "self-cleavage": 0.24
  },
  {
    "Variant Identifier": "C12G U43C",
    "self-cleavage": 0.38
  },
  {
    "Variant Identifier": "A15U G19U",
    "self-cleavage": 0.23
  },
  {
    "Variant Identifier": "A45G U66A",
    "self-cleavage": 0.41
  },
  {
    "Variant Identifier": "U41G U54G",
    "self-cleavage": 0.23
  },
  {
    "Variant Identifier": "A28G U51C",
    "self-cleavage": 0.62
  },
  {
    "Variant Identifier": "U49C G53A",
    "self-cleavage": 0.52
  },
  {
    "Variant Identifier": "U25C A28G",
    "self-cleavage": 0.28
  },
  {
    "Variant Identifier": "A2G A64G",
    "self-cleavage": 0.55
  },
  {
    "Variant Identifier": "C11U U25A",
    "self-cleavage": 0.38
  },
  {
    "Variant Identifier": "G9A U80C",
    "self-cleavage": 0.23
  },
  {
    "Variant Identifier": "U26C C32G",
    "self-cleavage": 0.11
  },
  {
    "Variant Identifier": "A65G U80G",
    "self-cleavage": 0.66
  },
  {
    "Variant Identifier": "C11U U41C",
    "self-cleavage": 0.51
  },
  {
    "Variant Identifier": "G6A A15G",
    "self-cleavage": 0.36
  },
  {
    "Variant Identifier": "A13C C14G",
    "self-cleavage": 0.56
  },
  {
    "Variant Identifier": "G10U A47G",
    "self-cleavage": 0.21
  },
  {
    "Variant Identifier": "C23G U78C",
    "self-cleavage": 0.28
  },
  {
    "Variant Identifier": "G33A A64U",
    "self-cleavage": 0.28
  },
  {
    "Variant Identifier": "U54C U69C",
    "self-cleavage": 0.52
  },
  {
    "Variant Identifier": "A47U U78C",
    "self-cleavage": 0.57
  },
  {
    "Variant Identifier": "U41C G63U",
    "self-cleavage": 1.13
  },
  {
    "Variant Identifier": "U54G U58C",
    "self-cleavage": 0.39
  },
  {
    "Variant Identifier": "A13G G22C",
    "self-cleavage": 0.12
  },
  {
    "Variant Identifier": "C4G U69C",
    "self-cleavage": 0.95
  },
  {
    "Variant Identifier": "A65U",
    "self-cleavage": 0.33
  },
  {
    "Variant Identifier": "G46U A75G",
    "self-cleavage": 0.22
  },
  {
    "Variant Identifier": "G33A G63A",
    "self-cleavage": 0.14
  },
  {
    "Variant Identifier": "C14U G46A",
    "self-cleavage": 0.12
  },
  {
    "Variant Identifier": "C71G A77U",
    "self-cleavage": 0.13
  },
  {
    "Variant Identifier": "G61C A65G",
    "self-cleavage": 0.39
  },
  {
    "Variant Identifier": "A47G U76A",
    "self-cleavage": 0.98
  },
  {
    "Variant Identifier": "G55U A75G",
    "self-cleavage": 0.92
  },
  {
    "Variant Identifier": "U49G U60C",
    "self-cleavage": 0.23
  },
  {
    "Variant Identifier": "U48A U49A",
    "self-cleavage": 0.38
  },
  {
    "Variant Identifier": "G10U U58C",
    "self-cleavage": 0.34
  },
  {
    "Variant Identifier": "A5G U58A",
    "self-cleavage": 0.24
  },
  {
    "Variant Identifier": "C37U U51A",
    "self-cleavage": 0.58
  },
  {
    "Variant Identifier": "C4G U41A",
    "self-cleavage": 0.5
  },
  {
    "Variant Identifier": "U26G U43A",
    "self-cleavage": 0.41
  },
  {
    "Variant Identifier": "U25C A57U",
    "self-cleavage": 0.31
  },
  {
    "Variant Identifier": "U1C A5U",
    "self-cleavage": 1.02
  },
  {
    "Variant Identifier": "C68G A77G",
    "self-cleavage": 0.61
  },
  {
    "Variant Identifier": "G33C C38U",
    "self-cleavage": 0.12
  },
  {
    "Variant Identifier": "A21U U60A",
    "self-cleavage": 0.3
  },
  {
    "Variant Identifier": "G10C U69G",
    "self-cleavage": 0.16
  },
  {
    "Variant Identifier": "G6A C14U",
    "self-cleavage": 0.57
  },
  {
    "Variant Identifier": "U41C U80A",
    "self-cleavage": 1.15
  },
  {
    "Variant Identifier": "G6A A65G",
    "self-cleavage": 0.16
  },
  {
    "Variant Identifier": "A3C U58C",
    "self-cleavage": 0.4
  },
  {
    "Variant Identifier": "A5G C44U",
    "self-cleavage": 0.43
  },
  {
    "Variant Identifier": "C4A U76A",
    "self-cleavage": 1.2
  },
  {
    "Variant Identifier": "C27G C29U",
    "self-cleavage": 0.29
  },
  {
    "Variant Identifier": "A3C U49A",
    "self-cleavage": 1.1
  },
  {
    "Variant Identifier": "U1A A3C",
    "self-cleavage": 1.09
  },
  {
    "Variant Identifier": "A21U A56U",
    "self-cleavage": 0.2
  },
  {
    "Variant Identifier": "A3G C62U",
    "self-cleavage": 0.39
  },
  {
    "Variant Identifier": "C11G U25A",
    "self-cleavage": 0.1
  }
]
